Biological target: T1, CD151 (UniProt P48509 1-253, limits assumed)
T1 construct: whole, on cells
T1 sequence (looked up): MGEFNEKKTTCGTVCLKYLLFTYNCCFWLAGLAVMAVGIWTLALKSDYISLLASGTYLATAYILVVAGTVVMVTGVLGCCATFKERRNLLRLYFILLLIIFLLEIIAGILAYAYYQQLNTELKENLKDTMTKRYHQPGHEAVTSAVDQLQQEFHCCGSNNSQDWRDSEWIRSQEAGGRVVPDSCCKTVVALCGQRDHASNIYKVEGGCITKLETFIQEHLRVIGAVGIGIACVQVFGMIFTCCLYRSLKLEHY
Test: flow cytometry on cells transfected with the target; signal over mock-transfected cells (background = 1.0)
Would you mind telling me the reported S:B Binding of each entry?

Lookup: For the binder shown here, Antibody of light chain D3 (D3chicken) paired with the heavy chain against CD151 (antibody, V domains shown, also called HC-CD151) VH: AVTLDESGGGLQMPGGALSLVCKASGFTFSSYGMEWVRQAPGKGLEWVAGISSGGGSTDYGTAVKGRATISRDNGQSTVRLQLNNLRAEDTGTYFCAKSAYGGTWDGDDIDAWGHGTEVIVSS VL: ALTQPSSVSANPGETVKITCSGDDRWYGWYQQKSPGSAPVTLIYSNDKRPSDIPSRFSGSKSGSTGTLTITGVQADDEAVYFCGSRDSSYAGIFGAGTTLTVL , give the reported S:B Binding.
Found: 47.5 S:B

Lookup: What measured S:B Binding goes with Antibody of common light chain C11 (C11chicken) paired with the heavy chain against CD151 (antibody, V domains shown, also called HC-CD151) VH: AVTLDESGGGLQMPGGALSLVCKASGFTFSSYGMEWVRQAPGKGLEWVAGISSGGGSTDYGTAVKGRATISRDNGQSTVRLQLNNLRAEDTGTYFCAKSAYGGTWDGDDIDAWGHGTEVIVSS VL: ALTQPSSVSANPGETVKITCSGGGSWYGSYYYGWYQQKSPGSAPVTLIYNNDKRPSDIPSRFSGSESGSTATLTITGVQAEDEAVYFCGGYDSTTTDMFGAGTTLTVL ?
Found: 1.4 S:B

Lookup: Which S:B Binding is listed for Antibody of light chain E1 (E1chicken) paired with the heavy chain against CD151 (antibody, V domains shown, also called HC-CD151) VH: AVTLDESGGGLQMPGGALSLVCKASGFTFSSYGMEWVRQAPGKGLEWVAGISSGGGSTDYGTAVKGRATISRDNGQSTVRLQLNNLRAEDTGTYFCAKSAYGGTWDGDDIDAWGHGTEVIVSS VL: ALTQPSSVSANPGETVKITCSGSSGSGYYGWYQQKSPGSAPVTLIYDNDKRPSDIPSRFSGSKSGSTGTLTITGVQADDEAVYFCGSADNNYTGIFGAGTTLTVL ?
Found: 28.8 S:B

Lookup: Reported S:B Binding for Antibody of common light chain B9 (B9chicken) paired with the heavy chain against CD151 (antibody, V domains shown, also called HC-CD151) VH: AVTLDESGGGLQMPGGALSLVCKASGFTFSSYGMEWVRQAPGKGLEWVAGISSGGGSTDYGTAVKGRATISRDNGQSTVRLQLNNLRAEDTGTYFCAKSAYGGTWDGDDIDAWGHGTEVIVSS VL: ALTQPSSVSANPGETVKITCSGGGSSNYYGWYQQKSPGSAPVTLIYGTNKRPSDIPSRFSGSKSGSTGTLTITGVQADDEAVYFCGSADSSTNAGIFGAGTTLTVL : what is it?
Found: 27.4 S:B
